Target: Paxillin/α4 binding (immobilized His-tagged α4 tail, soluble recombinant Paxillin) (Homo sapiens, UniProt P13612+P49023)
Construct: The design and production of recombinant cytoplasmic α4 tail polypeptide have been described; made in house; host or cells: E. coli BL21(DE3)pLysS for the α4 tail
Sequence (P13612 1002-1032 limits assumed): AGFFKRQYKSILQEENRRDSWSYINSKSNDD
Sequence (P49023 1-557 isoform P49023-2): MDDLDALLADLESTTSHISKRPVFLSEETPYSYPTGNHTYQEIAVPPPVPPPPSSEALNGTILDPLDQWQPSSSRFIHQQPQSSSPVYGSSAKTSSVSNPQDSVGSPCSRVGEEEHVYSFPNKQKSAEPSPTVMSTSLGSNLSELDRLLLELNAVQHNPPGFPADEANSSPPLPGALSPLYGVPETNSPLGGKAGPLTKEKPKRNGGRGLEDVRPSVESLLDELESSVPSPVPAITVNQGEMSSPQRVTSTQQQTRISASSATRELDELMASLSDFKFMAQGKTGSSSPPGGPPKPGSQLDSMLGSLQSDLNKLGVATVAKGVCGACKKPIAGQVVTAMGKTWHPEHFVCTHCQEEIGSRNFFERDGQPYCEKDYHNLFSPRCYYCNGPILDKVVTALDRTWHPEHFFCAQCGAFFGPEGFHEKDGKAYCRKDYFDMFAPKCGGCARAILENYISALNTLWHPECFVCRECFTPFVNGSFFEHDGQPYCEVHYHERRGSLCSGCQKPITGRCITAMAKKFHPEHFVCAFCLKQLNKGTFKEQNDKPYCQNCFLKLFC
Assay: Immobilized Paxillin/α4 binding assay (ELISA)
Settings: 1 μM
For each record, write down the corresponding Inhibition of Pax/α4 binding (% at 1 μM).
Answers are plain numbers, in %.

O=C(O)c1cc2c3c(ccc2[nH]1)N(C(=O)c1cc2c4c(ccc2[nH]1)NCC4)CC3 [Compound 23, H-CDPI2-OH]	27
O=C(O)c1cc2c3c(ccc2[nH]1)NCC3 [Compound 17, H-CDPI-OH]	11
COC(=O)c1cc2c3c(ccc2[nH]1)NCC3 [Compound 16, H-CDPI-OMe]	19
COC(=O)c1cc2c3c(ccc2[nH]1)N(C(=O)c1cc2c4c(ccc2[nH]1)NCC4)CC3 [Compound 21, H-CDPI2-OMe]	14
COC(=O)c1cc2c3c(ccc2[nH]1)N(C(=O)c1cc2c4c(ccc2[nH]1)N(C(=O)OC(C)(C)C)CC4)CC3 [Compound 20, Boc-CDPI2-OMe]	13
CC(C)(C)OC(=O)N1CCc2c1ccc1[nH]c(C(=O)O)cc21 [Compound 18, Boc-CDPI-OH]	6

Below: the item to evaluate.
Q. Please report Inhibition of Pax/α4 binding (% at 1 μM) for the following compound: COC(=O)c1cc2c3c(ccc2[nH]1)N(C(=O)OC(C)(C)C)CC3 [Compound 15, Boc-CDPI-OMe]
A. 3
